Data credit: PubChem BioAssay AID1963960

Tested on: MDA-MB-468 spheroids with HUVEC/MSC, viability
method.notes: Anticancer human tumor MDA-MB-468 cell line growth inhibition [PI3K];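 also: spheroids exposed to agents for seven days before readout; 100% = DMSO vehicle control viability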
settings: second compound 10 µM; first compound 0.0316 µM; stronger effect = lower value
recorded.endpoint: viability, T/C (%)
# output: bare number, implied unit %

Query: Give viability, T/C for the following molecule: CC(C)n1nc(-c2ccc3oc(N)nc3c2)c2c(N)ncnc21 + CC(Nc1ncnc2nc[nH]c12)c1cc2cccc(Cl)c2c(=O)n1-c1ccccc1
Result: 26.4

Query: Give viability, T/C for the following molecule: CC(C)n1nc(-c2ccc3oc(N)nc3c2)c2c(N)ncnc21 + Cc1nc(NC(=O)N2CCCC2C(N)=O)sc1-c1ccnc(C(C)(C)C(F)(F)F)c1
Result: 18.5

Query: Give viability, T/C for the following molecule: CC(=O)c1c(C)c2cnc(Nc3ccc(N4CCNCC4)cn3)nc2n(C2CCCC2)c1=O + Cc1nc(NC(=O)N2CCCC2C(N)=O)sc1-c1ccnc(C(C)(C)C(F)(F)F)c1
Result: 29.5

---

System: MDA-MB-468 spheroids with HUVEC/MSC, viability
method.notes: Anticancer human tumor MDA-MB-468 cell line growth inhibition [PI3K]; active = viability on the fitted dose curve at most 10% of control; inactive = the rest;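 also: spheroids exposed to agents for seven days before readout; 100% = DMSO vehicle control viability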
settings: second compound 1 µM; first compound 10 µM
Hi there, use one of these labels in your reply, thanks! YES for active, NO for inactive

Query: Called result for CC1(C)CCC(Nc2ncc(C(F)(F)F)c(-c3c[nH]c4c(P(C)(C)=O)c(C#N)ccc34)n2)CN1 (stereo not drawn) + COc1c(OCCCN2CCOCC2)ccc2c3n(c(=NC(=O)c4cnc(N)nc4)nc12)CCN3
Result: YES

Query: Called result for C[C@@H](NC(=O)c1ncnc(N)c1Cl)c1ncc(C(=O)Nc2cc(C(F)(F)F)c(Cl)cn2)s1 + CC(Nc1ccc2c(c1)OCCn1cc(N3C(=O)OCC3C(F)F)nc1-2)C(N)=O
Result: NO

Query: Called result for CCCS(=O)(=O)Nc1ccc(F)c(C(=O)c2c[nH]c3ncc(-c4ccc(Cl)cc4)cc23)c1F + CC(Nc1ncnc2nc[nH]c12)c1cc2cccc(Cl)c2c(=O)n1-c1ccccc1
Result: NO

---

Tested on: MDA-MB-468 spheroids with HUVEC/MSC, viability
method.notes: Anticancer human tumor MDA-MB-468 cell line growth inhibition [PI3K]; active = viability on the fitted dose curve at most 10% of control; inactive = the rest;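 also: spheroids exposed to agents for seven days before readout; 100% = DMSO vehicle control viability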
settings: second compound 0.0316 µM; first compound 10 µM
Hi there, use one of these labels in your reply, thanks! active, inactive

Query: Called result for CNC(=O)c1ccc(N2C(=S)N(c3ccc(C#N)c(C(F)(F)F)c3)C(=O)C2(C)C)cc1F + CC(Nc1ncnc2nc[nH]c12)c1cc2cccc(Cl)c2c(=O)n1-c1ccccc1
Result: inactive

Query: Called result for CC(Cn1ccc(-c2ccc(C#N)c(Cl)c2)n1)NC(=O)c1cc(C(C)O)[nH]n1 (stereo not given) + Cc1nc(NC(=O)N2CCCC2C(N)=O)sc1-c1ccnc(C(C)(C)C(F)(F)F)c1
Result: inactive

Query: Called result for C#Cc1c(F)ccc2cc(O)cc(-c3ncc4c(N5CC6CCC(C5)N6)nc(OCC56CCCN5CC(F)C6)nc4c3F)c12 (stereo not given) + COc1c(OCCCN2CCOCC2)ccc2c3n(c(=NC(=O)c4cnc(N)nc4)nc12)CCN3
Result: inactive

Query: Called result for C=CC(=O)N1CCN(c2nc(=O)n(-c3c(C)ccnc3C(C)C)c3nc(-c4c(O)cccc4F)c(F)cc23)C(C)C1 (stereo not given) + Cc1nc(NC(=O)N2CCCC2C(N)=O)sc1-c1ccnc(C(C)(C)C(F)(F)F)c1
Result: inactive

Query: Called result for CNC(=O)c1ccc(N2C(=S)N(c3ccc(C#N)c(C(F)(F)F)c3)C(=O)C2(C)C)cc1F + Cc1nc(NC(=O)N2CCCC2C(N)=O)sc1-c1ccnc(C(C)(C)C(F)(F)F)c1
Result: inactive

Query: Called result for CC1(C)CCC(Nc2ncc(C(F)(F)F)c(-c3c[nH]c4c(P(C)(C)=O)c(C#N)ccc34)n2)CN1 (stereo not given) + CC(Nc1ncnc2nc[nH]c12)c1cc2cccc(Cl)c2c(=O)n1-c1ccccc1
Result: active

Query: Called result for C[C@@H](NC(=O)c1ncnc(N)c1Cl)c1ncc(C(=O)Nc2cc(C(F)(F)F)c(Cl)cn2)s1 + CC(Nc1ncnc2nc[nH]c12)c1cc2cccc(Cl)c2c(=O)n1-c1ccccc1
Result: inactive

Query: Called result for C[C@@H](NC(=O)c1ncnc(N)c1Cl)c1ncc(C(=O)Nc2cc(C(F)(F)F)c(Cl)cn2)s1 + Cc1nc(NC(=O)N2CCCC2C(N)=O)sc1-c1ccnc(C(C)(C)C(F)(F)F)c1
Result: inactive

Query: Called result for Cn1ncc(Cl)c1-c1cc(C(=O)NC(CN)Cc2cccc(F)c2)sc1Cl (stereo not given) + CC(Nc1ncnc2nc[nH]c12)c1cc2cccc(Cl)c2c(=O)n1-c1ccccc1
Result: inactive

Query: Called result for CC1(C)CCC(Nc2ncc(C(F)(F)F)c(-c3c[nH]c4c(P(C)(C)=O)c(C#N)ccc34)n2)CN1 (stereo not given) + CC(Nc1ccc2c(c1)OCCn1cc(N3C(=O)OCC3C(F)F)nc1-2)C(N)=O
Result: active
